List of Herbicidal activity on a 0-100 scale, ECHCG values.
System: Echinochloa crus galli (ECHCG)
test.method.notes: B2 Post-Emergence Efficacy - Test 2
Type: in vivo
condition.context: 60 g/Ha, 15 days after application, 0=no damage, 100=total kill
property.label: Herbicidal activity on a 0-100 scale, ECHCG

molecule_smiles=Cc1nn(C)c(=O)c(-c2c(F)ccc(Cl)c2CCc2ccccc2C(F)(F)F)c1O reported_measurement=90
molecule_smiles=Cc1nn(C)c(=O)c(-c2c(F)ccc(Cl)c2CCc2ccc(F)cc2)c1OC(=O)C(C)C reported_measurement=80
molecule_smiles=Cc1nn(C)c(=O)c(-c2c(F)ccc(Cl)c2CCc2ccc(F)cc2)c1O reported_measurement=80
molecule_smiles=Cc1nn(C)c(=O)c(-c2c(F)ccc(Cl)c2CCc2ccc(C(F)(F)F)nc2)c1O reported_measurement=90
molecule_smiles=Cc1nn(C)c(=O)c(-c2c(F)ccc(Cl)c2CCc2ccc(Cl)cc2)c1OC(=O)C(C)C reported_measurement=80
molecule_smiles=Cc1nn(C)c(=O)c(-c2c(F)ccc(Cl)c2CCc2ccc(C#N)cc2)c1O reported_measurement=80
